Tested on: Bacillus subtilis
PROTOCOL_SUMMARY: cleaved RNA product abundance (RNA/gDNA barcode ratio) relative to median wild-type variant (ratio to wild type); higher = more accumulation of the downstream cleavage product
PROTOCOL_CONDITIONS: experiment (reporter, strain, medium): exp 4a: truncated aprE reporter, strain BJT201 with 2% xylose (RNase J1 expressed); cleavage site: cggR-gapA (positions -7 to +36 mutated)
Recorded cleaved RNA product abundance split into classes low band: < 0.2; middle band: ≥ 0.2 and < 0.3; high band: ≥ 0.3

>>> class_assignment("ACAGACGAAGGAGCCGCAAAGAAGTTCTTAAGGGATGAATAATCCCTCAAAATAAATATCTCTCACTTATTTAAA")
"low band"

INPUT: Which class holds ACAGACGAAGGAGCCGCAAAGAACTTATTAAGGGATGAATAATCCCTCCATATAAATATCTCTCACTTATTTAAA ?
OUTPUT: middle band

INPUT: Form: Item = ACAGACGAAGGAGCCGCAAAGAAGTTATTACAGGATGAATAATCCCTCAATATAAATATCTCTCACTTATTTAAA ; Class = ?
OUTPUT: low band
